Data origin: ChEMBL document CHEMBL4813962

UniProt:P00918: reported pIC50 for various compounds.
Notebook: values listed as pIC50 are -log10 of the concentration (mol/L).

Look over these answered cases.
NS(=O)(=O)c1ccc(CCNC(=S)Nc2ccc3ncnc(Nc4cccc(C(F)(F)F)c4)c3c2)cc1
6.62
COc1cc2ncnc(Nc3ccc(Cl)c(C(F)(F)F)c3)c2cc1OCCCCC(=O)Nc1ccc(S(N)(=O)=O)cc1
6.45
NS(=O)(=O)c1ccc(NC(=S)Nc2ccc3ncnc(Nc4cccc(C(F)(F)F)c4)c3c2)cc1
6.28

Now turn to the next compound.
Name the recorded pIC50 for `COc1cc2ncnc(Nc3cccc(C(F)(F)F)c3)c2cc1OCCCCC(=O)Nc1ccc(S(N)(=O)=O)cc1` .
6.56
